The values you see were collected from ChEMBL document CHEMBL1139653.

- TGT: UniProtKB P28335
- Sequence (P28335 whole entry): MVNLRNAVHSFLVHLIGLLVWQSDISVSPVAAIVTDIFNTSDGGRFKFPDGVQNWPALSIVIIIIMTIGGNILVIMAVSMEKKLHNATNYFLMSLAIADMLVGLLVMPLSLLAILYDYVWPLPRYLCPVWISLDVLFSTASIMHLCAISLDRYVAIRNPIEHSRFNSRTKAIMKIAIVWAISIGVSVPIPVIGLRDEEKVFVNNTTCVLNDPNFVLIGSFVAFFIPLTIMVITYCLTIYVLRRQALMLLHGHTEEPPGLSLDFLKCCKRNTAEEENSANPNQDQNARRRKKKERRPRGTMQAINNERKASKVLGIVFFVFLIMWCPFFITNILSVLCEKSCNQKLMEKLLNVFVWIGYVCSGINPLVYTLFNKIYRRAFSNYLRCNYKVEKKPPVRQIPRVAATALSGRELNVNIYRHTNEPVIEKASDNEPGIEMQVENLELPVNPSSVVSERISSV
- PROTOCOL NOTES: Efficacy against human recombinant 5HT2C receptor expressed in CHO cells at 1 uM in relative to 10 uM 5HT by FLIPR
- Format: functional, cell-based
RESULT TYPE: Efficacy (%)
Supply the numeric figure in %, leaving out any unit text.

The cases that follow already have their Efficacy on record.
MOL	TGT	Efficacy / %
C[C@@H]1CNC[C@H]2Cc3ccc(Cl)nc3N21	UniProtKB P28335	98
C[C@@H]1CNC[C@@H]2Cc3ccc(Br)nc3N21	UniProtKB P28335	87

Please give the documented Efficacy of COCc1ccc2c(n1)N1[C@@H](CNC[C@H]1C)C2
97

Supply measured Efficacy of CCO[C@H](C)c1ccc2c(n1)N1[C@@H](CNC[C@H]1C)C2 in your reply.
86

Please give measured Efficacy of the following entry: C[C@@H]1CNC[C@H]2Cc3ccc(C(F)(F)F)nc3N21
96

Give the value of Efficacy reported for the following: C[C@@H]1CNC[C@H]2Cc3ccc(COCC4CC4)nc3N21
87

Indicate the recorded Efficacy value for this compound: C[C@H](O)c1ccc2c(n1)N1[C@@H](CNC[C@H]1C)C2
101

Tell me measured Efficacy for Cc1ccc2c(n1)N1[C@@H](CNC[C@H]1C)C2 please.
101

Hello, please tell me recorded Efficacy for this one: C[C@@H]1CNC[C@H]2Cc3ccc(C#N)nc3N21
85

---

- TGT: Sodium-dependent serotonin transporter (Homo sapiens, UniProt P31645)
- Sequence (P31645 whole entry): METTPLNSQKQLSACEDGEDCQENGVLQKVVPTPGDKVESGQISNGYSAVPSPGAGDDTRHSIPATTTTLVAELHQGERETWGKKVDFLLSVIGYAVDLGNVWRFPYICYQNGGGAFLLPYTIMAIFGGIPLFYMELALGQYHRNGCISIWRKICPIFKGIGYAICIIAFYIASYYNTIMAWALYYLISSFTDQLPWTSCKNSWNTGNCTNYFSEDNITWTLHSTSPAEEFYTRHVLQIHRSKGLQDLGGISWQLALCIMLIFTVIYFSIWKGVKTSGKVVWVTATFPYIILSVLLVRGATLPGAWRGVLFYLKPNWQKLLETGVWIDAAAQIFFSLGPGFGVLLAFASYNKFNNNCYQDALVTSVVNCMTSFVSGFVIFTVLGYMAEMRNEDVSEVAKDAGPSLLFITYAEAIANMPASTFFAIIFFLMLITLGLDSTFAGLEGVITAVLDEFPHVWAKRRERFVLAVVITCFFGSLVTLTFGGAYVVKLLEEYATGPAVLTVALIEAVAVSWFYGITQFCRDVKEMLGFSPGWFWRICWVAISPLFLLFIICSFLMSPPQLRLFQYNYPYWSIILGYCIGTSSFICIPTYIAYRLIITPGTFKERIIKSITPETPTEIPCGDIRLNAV
pKi: −log10 of the molar value.
RESULT TYPE: pKi

Enter measured pKi, system Sodium-dependent serotonin transporter (Homo sapiens, UniProt P31645), for the compound shown: C[C@@H]1CNC[C@H]2Cc3ccc(COCC4CC4)nc3N21
< 6.00

---

- TGT: D(4) dopamine receptor (Homo sapiens, UniProt P21917)
- Sequence (P21917 whole entry): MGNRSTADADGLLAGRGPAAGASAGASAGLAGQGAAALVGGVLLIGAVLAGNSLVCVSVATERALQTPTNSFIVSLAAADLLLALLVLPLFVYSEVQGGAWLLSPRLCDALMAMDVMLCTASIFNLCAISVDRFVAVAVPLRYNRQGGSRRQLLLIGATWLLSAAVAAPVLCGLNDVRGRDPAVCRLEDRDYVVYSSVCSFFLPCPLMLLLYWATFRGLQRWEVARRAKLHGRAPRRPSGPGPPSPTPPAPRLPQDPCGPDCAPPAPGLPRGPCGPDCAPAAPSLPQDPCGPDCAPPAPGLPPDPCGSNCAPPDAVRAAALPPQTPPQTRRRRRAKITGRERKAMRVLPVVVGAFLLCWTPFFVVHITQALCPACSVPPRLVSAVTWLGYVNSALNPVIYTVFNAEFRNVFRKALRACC
pKi: −log10 of the molar value.
RESULT TYPE: pKi

Provide one value: measured pKi of C[C@@H]1CNC[C@H]2Cc3ccc(COCC4CC4)nc3N21
< 6.14

---

Below, each entry is listed alongside its reported Ki.
- TGT: 5-hydroxytryptamine receptor 2A (Homo sapiens)
- Sequence (P28223 whole entry): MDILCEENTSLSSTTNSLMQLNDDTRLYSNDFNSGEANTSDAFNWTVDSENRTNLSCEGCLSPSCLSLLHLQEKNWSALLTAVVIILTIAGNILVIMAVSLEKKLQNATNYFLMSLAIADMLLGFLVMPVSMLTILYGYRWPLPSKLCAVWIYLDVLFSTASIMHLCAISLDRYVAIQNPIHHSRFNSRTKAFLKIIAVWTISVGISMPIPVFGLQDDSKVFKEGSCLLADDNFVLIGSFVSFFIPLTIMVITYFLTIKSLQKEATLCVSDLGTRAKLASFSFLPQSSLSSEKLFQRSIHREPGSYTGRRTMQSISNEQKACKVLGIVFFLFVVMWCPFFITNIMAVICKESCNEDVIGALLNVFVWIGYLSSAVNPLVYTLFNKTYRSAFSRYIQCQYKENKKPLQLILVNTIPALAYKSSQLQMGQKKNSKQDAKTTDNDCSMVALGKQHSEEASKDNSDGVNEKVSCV
- PROTOCOL NOTES: Displacement of [125I]DOI from human recombinant 5HT2A receptor expressed in CHO cells
Response body: numeric value in nM, unit text excluded.

Answered examples (3):
MOL	Ki (nM)
C[C@@H]1CNC[C@H]2Cc3ccc(CO)nc3N21	942
C[C@@H]1CNC[C@@H]2Cc3ccc(Cl)nc3N21	54
C[C@@H]1CNC[C@@H]2Cc3ccc(Br)nc3N21	58

// below: Ki requested for another compound
Specify measured Ki for C[C@@H]1CNC[C@H]2Cc3ccc(C(F)(F)F)nc3N21 .
43
